# assayed.system: Thyroid hormone receptor beta (Homo sapiens)
# experiment.notes: qHTS assay for small molecule antagonists of thyroid hormone receptor beta signaling (AID 588547);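 note: cells stimulated with 0.4 nM T3 agonist during compound exposure; % is set by controls: 0 for no effect and ±100 for the full control effect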
# applied.conditions: TR-UAS-bla HEK293, beta-lactamase ratio, antagonist mode, 18 h
Inconclusive results are not listed.
measurement.type: activity change % (negative = inhibition) (%)
Answers are plain numbers, in %.

Sample answers from the record:
structure.as.smiles: Nc1nc2ccc([N+](=O)[O-])cc2s1
test.result: -2.47

structure.as.smiles: NCCO
test.result: -5.7

Go through the items and report each one's activity change % (negative = inhibition).
1. CN(C)c1ccc(N=NS(=O)(=O)O)cc1
2. O=C(O)c1cc(O)c(O)c(O)c1
3. N=C1N=C(N)c2cc3ccccc3cc21
4. c1cnc2c(c1)ccc1cccnc12
5. C=CCCCCCCCCC(=O)O
6. CCCCCCCCCCCCCCCC(=O)OC(C)C

Result:
1: -11.7; 2: -16.5; 3: 8.6; 4: -10.3; 5: -5.71; 6: -1.02

Query: For the compound CC(C)OC(=O)c1cc(C(=O)OC(C)C)cc([N+](=O)[O-])c1 , what activity change % (negative = inhibition) is on record?
Result: 6.57

* * *

# experiment.notes: qHTS of pediatric cancer cell lines to identify multiple opportunities for drug repurposing: Primary screen for BT-37 cells (AID 1347094);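 note: plate controls were DMSO for no effect and bortezomib for full effect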
# applied.conditions: BT-37 viability, CellTiter-Glo luminescence, 48 h; series mostly up to 57.3 µM
Inconclusive results are not listed. The source made the active and inactive calls. Calls come from the whole dose curve; as a rule, active = well fitted cell-killing curve with a large enough effect; inconclusive = small, poorly fitted or top-dose-only effect; inactive = flat fitted curve, though single readings scatter.
Hello, when you answer, please use one of the following outcomes: active, inactive

Example cases with answers are listed next.
molecule: C#CC1(O)CC[C@H]2[C@@H]3CCC4=CCCC[C@@H]4[C@H]3CC[C@@]21C (stereo partly drawn)
class.name: inactive
//
molecule: c1ccc2sc(SSc3nc4ccccc4s3)nc2c1
class.name: inactive
//
molecule: CN1CC(=O)N/C1=N/C(=O)Nc1cccc(Cl)c1
class.name: inactive

Query: Can you look up the reported call for Nc1cc(-c2ccncc2)c[nH]c1=O for me?
Result: inactive

Query: Can you look up the reported call for CN(C)c1ccc(N=NS(=O)(=O)O)cc1 for me?
Result: inactive

Query: Can you look up the reported call for Cc1c(N)c(=O)n(-c2ccccc2)n1C for me?
Result: inactive

* * *

# assayed.system: Cytochrome P450 3A4 (Homo sapiens)
# experiment.notes: qHTS Assay for Inhibitors and Substrates of Cytochrome P450 3A4 (AID 884); note: nearly all actives have a fitted effect of over 50% in size
# applied.conditions: recombinant CYP3A4, Luciferin-PPXE luminescence; series mostly up to 57.1 µM
Records with an inconclusive call do not appear. Calls of active or inactive are those of the source. Calls come from the whole dose curve; as a rule, active = well fitted inhibition curve with a large enough effect; inconclusive = small, poorly fitted or top-dose-only effect; inactive = no such curve, though single readings can be large or run the other way.
Hello, when you answer, please use one of the following outcomes: class 1 for active, class 0 for inactive

molecule: O=C(Nc1ccncc1)c1cc([N+](=O)[O-])ccc1Cl
class.name: class 1
--
molecule: Brc1c(Br)c(Br)c2n[nH]nc2c1Br
class.name: class 1
--
molecule: O=C(O)c1cc(=O)c2c(Cl)cc(Cl)cc2[nH]1
class.name: class 0
--
molecule: CN(C)CCC(c1ccc(Cl)cc1)c1ccccn1 (stereo not drawn)
class.name: class 0

Query: Can you look up the reported call for N=C(N)SCCc1ccc(CCSC(=N)N)cc1 for me?
Result: class 0

Query: Can you look up the reported call for Oc1cc2c(cc1O)CN(C(=S)NCCc1ccc(Cl)cc1)CCC2 for me?
Result: class 1

Query: Can you look up the reported call for CCCn1c(=O)c2[nH]c(-c3ccc(OCC(=O)NCCN)cc3)nc2n(CCC)c1=O for me?
Result: class 1

Query: Can you look up the reported call for O=C(O)c1cc(O)c(O)c(O)c1 for me?
Result: class 0

Query: Can you look up the reported call for c1ccc2sc(SSc3nc4ccccc4s3)nc2c1 for me?
Result: class 0

Query: Can you look up the reported call for O=C(O)[C@@H]1C[C@@H](C(=O)O)N1 for me?
Result: class 0

Query: Can you look up the reported call for COc1cc(/C=C/C(=O)CC(=O)/C=C/c2ccc(O)c(OC)c2)ccc1O for me?
Result: class 1

Query: Can you look up the reported call for c1cnc2c(c1)ccc1cccnc12 for me?
Result: class 0

Query: Can you look up the reported call for N.N.O=C(O)C1(C(=O)O)CCC1.[Pt] for me?
Result: class 0
